Experimental target: T1, recombinant human 5T4 ECD protein fused to human Fc (human, UniProt Q13641 32-355)
T1 construct: extracellular domain; Immunogen, ELISA antigen and Octet analyte; also called 5T4-ECD-hFc; 5T4-ECD-Fc; not shown: human Fc
T1 sequence (looked up): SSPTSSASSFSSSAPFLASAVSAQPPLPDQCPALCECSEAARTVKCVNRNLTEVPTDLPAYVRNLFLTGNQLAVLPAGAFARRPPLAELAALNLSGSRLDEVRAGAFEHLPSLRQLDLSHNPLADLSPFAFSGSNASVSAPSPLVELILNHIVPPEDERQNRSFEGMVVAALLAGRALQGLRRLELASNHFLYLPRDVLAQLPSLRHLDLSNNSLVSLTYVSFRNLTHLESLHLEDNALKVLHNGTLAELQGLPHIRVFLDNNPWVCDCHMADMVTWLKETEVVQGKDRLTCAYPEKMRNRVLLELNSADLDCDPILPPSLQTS
Measurement protocol: Octet, mAb on AMC sensor, 5T4-Fc as analyte
Experimental: Binding Affinities by Octet Test. Briefly, mAb were analyzed by Octet RED 384 instrument, where human 5T4-ECD Fc antigen at 200 nM and 100 nM served as the analyte and the purified mAbs at 5 μg/ml served as the ligand, bound to AMC sensor (anti mouse Fc antibody) with immobilized phase of 180 s, association phase of 300 s, dissociation phase of 180 s. FIGS. 7A-7G present the Octet data determined the KD affinities of selected mAb.
Below is a list of entries, each paired with its recorded koff value.

Binder	koff (s⁻¹)
mAb005 (antibody, V domains shown, also called IM, 5T4 mouse hybridoma cl-5) VH: EVQLVESGGGLVQPKGSLQLSCAASGFTFNTYAMHWVRQAPGKGLEWVARIRSKSSNYATYYADSVKDRFTISRDDSQSMLYLQMNNLKTEDTAMYYCVRDGDYYYGSRPSYWYFDVWGTGTTVTVSS VL: DILLTQSPAILSVSPGERVSFSCRASQSIGTNIHWYQQRTNGSPRLLIKYASESISGIPSRFSGSGSGTDFTLSINNVESEDIADYYCQQTNTWPLTFGAGTKLDLK	0.00024
mAb016 (antibody, V domains shown, also called mAb0016; IM, 5T4 mouse hybridoma cl-16) VH: AVQLQQSGPVRVKPGASVKMSCKASGYPFTDYYMNWVKQSHGRSLDWIGVFNPYNGDTRYTQKFKDKATLTIDKSSSTAYMELNSLTSEDSAVYYCARLRLLYDTSEYYVMDYWGQGTSVTVSS VL: ENVLTQSPAIMSASPGEKVTMTCSASSSVNYMHWYQQKSNTSPKLWIYDTSKLASGVPGRFSGSGSGNSYSLTISSMEAEDVATYFCFQGSGYPYTFGGGTKLEIK	3.48e-05
mAb018 (antibody, V domains shown, also called IM, 5T4 mouse hybridoma cl-18) VH: EVQLRQSGPVLVKPGASLKMSCKASGFTIADYYMTWVTQSHGQSLDWIGLINPYSGETTYNQKFKGKATLSVDKSSNTAYMDLNSLTSEDSAVYYCARWRLGYYAMDYWGRGTSVTVSS VL: ENVLTQSPAIMSASPGEKVTMTCSASSSVSYMHWYQQKSSTSPKVWIYDTSKLASGVPGRFSGSGSGNSYSLTISSMEAEDVATYYCFQGIGYPYTFGGGTKLEIK	6.97e-05
mAb010 (antibody, V domains shown, also called mAb10; IM, 5T4 mouse hybridoma cl-10) VH: QVQLRQSGAELMKPGASVKLSCKATGYTFTGYWIEWVKQRPGHGLEWIGEILPGRGSSNYNEKFKGKATLTADTSSNTVYMQLSSLTIEDSAIYYCARGGRDFDYWGQGTTLTVSS VL: DIQMTQITSSLSASLGDRVTIGCSASQGINNNLNWYQQKPDGTVKLLVYYTSSLHSGVPSRFSGSGSGTDYSLTISNLEPEDIATYYCQQFIKLPYTFGGGTKLEIK	9.53e-05
mAb008 (antibody, V domains shown, also called IM, 5T4 mouse hybridoma cl-8) VH: QVQLQQSGAELMKPGASVKLACKATGYTFTAYWIEWVKQRPGHGLEWIGEILPGRGSTNSNEKFKGKATFTADTSSNTVYMQLSSLTTEDSAIFYCARGYRDFDYWGQGTTLTVSS VL: DIVMTQSQKFMSTTVGDRVSIICKASQNVGTAVAWYQQKPGQSPKVLIYSASNRYTGVPDRFTGSGSGTDFTLTISNMQSEDLADYFCQQYTSYPRTFGGGTKLEIK	3.87e-05
